Target: 5-Lipoxygenase (Rattus norvegicus)
Construct: endogenous in cells; host or cells: RBL-1 (rat basophilic leukemia) cells
Sequence (P12527 whole entry): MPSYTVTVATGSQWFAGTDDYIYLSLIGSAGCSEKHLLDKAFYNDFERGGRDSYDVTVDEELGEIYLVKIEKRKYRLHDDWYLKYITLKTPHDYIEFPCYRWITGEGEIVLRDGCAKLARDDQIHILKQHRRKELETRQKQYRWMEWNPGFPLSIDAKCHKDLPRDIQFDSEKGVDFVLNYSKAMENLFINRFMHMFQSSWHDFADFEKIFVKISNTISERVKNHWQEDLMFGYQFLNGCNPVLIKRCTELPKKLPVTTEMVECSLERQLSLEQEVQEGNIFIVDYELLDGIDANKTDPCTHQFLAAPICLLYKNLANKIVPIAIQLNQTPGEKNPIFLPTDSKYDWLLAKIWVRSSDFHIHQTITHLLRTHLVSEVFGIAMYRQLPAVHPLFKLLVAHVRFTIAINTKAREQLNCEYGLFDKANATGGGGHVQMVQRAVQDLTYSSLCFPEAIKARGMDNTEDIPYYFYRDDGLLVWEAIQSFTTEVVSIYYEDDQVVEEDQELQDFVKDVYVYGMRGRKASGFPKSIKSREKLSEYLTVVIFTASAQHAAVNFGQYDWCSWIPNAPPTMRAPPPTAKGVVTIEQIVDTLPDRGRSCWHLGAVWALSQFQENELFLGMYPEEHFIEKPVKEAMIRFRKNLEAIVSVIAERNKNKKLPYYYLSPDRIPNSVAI
Assay: 5-Lipoxygenase inhibiting action: 5-HETE production in rat basophilic leukemia (RBL-1) cells (HPLC)
Assay type: cell-based
Settings: 10^-8 M, read-out: Effect of Inhibiting 5-Lipoxygenase, % Inhibition (IE)
property_name: inhibition at 0.01 µM (%)
Entry rule: numbers only, all in %.

q: For the compound Cc1c(C)c2c(c(C)c1O)CC(C)(CC#N)O2 (stereo not shown) , give its measured inhibition at 0.01 µM value.
a: 0

q: Look up and report measured inhibition at 0.01 µM for this entry: Cc1c(C)c2c(c(C)c1O)CC(C)(CCc1ccccc1)O2 (stereo not shown)
a: 46

q: Indicate its recorded inhibition at 0.01 µM; the compound in question is Cc1c(C)c2c(c(C)c1O)CC(C)(C=Cc1ccccc1)O2 (stereo not shown)
a: 12

q: Note down inhibition at 0.01 µM recorded for Cc1c(C)c2c(c(C)c1O)CC(C)(CBr)O2 (stereo not shown)
a: 4

----------
Biological target: 12-Lipoxygenase (Rattus norvegicus, UniProt F1LQ70)
Construct: from tissue; host or cells: Wistar rat platelets (PRP mixed with PPP, from citrated aortic blood)
Sequence (F1LQ70 1-663): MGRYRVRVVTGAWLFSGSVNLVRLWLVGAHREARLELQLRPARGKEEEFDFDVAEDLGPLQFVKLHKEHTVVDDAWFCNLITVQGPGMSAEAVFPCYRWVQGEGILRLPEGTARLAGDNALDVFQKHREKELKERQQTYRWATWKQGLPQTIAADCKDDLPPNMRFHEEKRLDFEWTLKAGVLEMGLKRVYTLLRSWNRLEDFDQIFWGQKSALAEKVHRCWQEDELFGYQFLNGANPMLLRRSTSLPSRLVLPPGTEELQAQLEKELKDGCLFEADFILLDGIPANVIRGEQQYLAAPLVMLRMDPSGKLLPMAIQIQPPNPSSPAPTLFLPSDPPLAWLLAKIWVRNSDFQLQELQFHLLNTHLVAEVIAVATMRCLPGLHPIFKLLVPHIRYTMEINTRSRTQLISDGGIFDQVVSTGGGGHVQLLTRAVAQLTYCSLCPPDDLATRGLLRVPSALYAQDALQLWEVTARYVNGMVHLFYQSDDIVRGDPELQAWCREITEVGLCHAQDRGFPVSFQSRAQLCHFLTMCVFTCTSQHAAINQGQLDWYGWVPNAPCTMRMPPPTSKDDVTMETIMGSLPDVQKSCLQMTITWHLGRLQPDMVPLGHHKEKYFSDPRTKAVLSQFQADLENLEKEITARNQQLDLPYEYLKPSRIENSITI
Test: 12-Lipoxygenase inhibitory action: 12-HETE production in Wistar rat platelets (HPLC)
Format: cell-based
Details: 10^-6 M, read-out: 12-Lipoxygenase Inhibitory Action, % Inhibition (IE)
property_name: inhibition at 1 µM

q: Specify measured inhibition at 1 µM for Cc1c(C)c2c(c(C)c1O)CC(C)(CCCCc1ccccc1)O2 (stereo not drawn) .
a: 92%

q: Please give the documented inhibition at 1 µM of CCCCCCCCCC1(C)Cc2c(C)c(O)c(C)c(C)c2O1 (stereo not drawn)
a: 32%

q: Determine its reported inhibition at 1 µM: COc1cccc(CCC2(C)Cc3c(C)c(O)c(C)c(C)c3O2)c1 (stereo not drawn)
a: 58%

q: Supply inhibition at 1 µM value. Item: COc1ccc(/C=C\C2(C)Cc3c(C)c(O)c(C)c(C)c3O2)cc1 (stereo not drawn)
a: 98%

q: Find the measured inhibition at 1 µM of Cc1c(C)c2c(c(C)c1O)CC(C)(C=Cc1ccccc1)O2 (stereo not drawn) and report it.
a: 52%

q: Return reported inhibition at 1 µM. Input compound: Cc1c(C)c2c(c(C)c1O)CC(C)(CCc1ccccc1)O2 (stereo not drawn)
a: 11%

q: Using the record for CCCCCCC/C=C\C1(C)Cc2c(C)c(O)c(C)c(C)c2O1 (stereo not drawn) , state its measured inhibition at 1 µM.
a: 90%

q: Note down inhibition at 1 µM recorded for Cc1c(C)c2c(c(C)c1O)CC(C)(/C=C/c1ccccc1)O2 (stereo not drawn)
a: 89%

q: Annotate the compound Cc1c(C)c2c(c(C)c1O)CC(C)(/C=C\c1ccc(F)cc1)O2 (stereo not drawn) with its measured inhibition at 1 µM.
a: 98%
